# PROCEDURE_TEXT: protease stability score; higher = more stable; yeast display proteolysis, trypsin and chymotrypsin;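 further: relative to predicted unfolded state with 0 unfolded-like and 1 meaning tenfold more protease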
Label scheme for protease stability score: lower than 1 is NO, 1 and above is YES.

# ORDERED_RESIDUES, LABEL_VALUE
records = [
    ("SDLEEEALNLAREWMHNWVTGNEEREEELLDPNVRSDINGRHFHGRERISRMIRYLLDEIRVHDVKEHDMEIQGEKVRIDGRIDGEVNGKRKILVMHFHIVVIDGVIHSVEVRIE", "YES"),
    ("DEDTRIMEELLELTMEHVKTGDESSFRKLADPNVRMEYNGVEIHGREEASELFLEEMERIKNLTLRIKRLHIQGDKVIIYEEYEYGEKSWTVTYEAYKINGRWLMESIRFG", "YES"),
    ("DDHDEELQRIVEIIFRHISTGNFDHLYKYLDPNVRMIIWIGDKNITAHGREHMSEVLHKLWKHLRIKDVDLHDVKSQGEKAIVDTHVHGIIDGKDTHIKTTLIVIIVDGRLKQMEVEVK", "YES"),
    ("DDEEKRYRLFYKIALTMFETGDWQILHELADPHVKVRVGDKDLHGREELTHFWKELVERYPNMKIRLDDLSLQGEKIHIEGTWHFDGKELTTHIDLIMVDGKLKETRYEHK", "YES"),
    ("DEEDKMAEFFMRLIFRAWLTGDEEELEKFMDPNTKHNLDIDGRNDHQIGRHEIVHHLKHFWRRYDHVQVKIRKYHIQGEKAHLHGHLILFIDGVEIRHNIEIRVVVINGRVHSVTMHIH", "YES"),
    ("DEDTKVVEEILRLLVEIWKTGDEHTWKRLLDPHARMDVDGRELHGREEIARHVKEETEKLGANVHNHVEIHHMEIIGNKVIIDGTVDGIVNGRITRIRVEVFWLVFDGVIKEEEHRVL", "NO"),
    ("SKEEEDTERITRLILEYLLTGDEDVFNHLADPNVRLVIDGRLVHGRERASRIMVESYEKFGADHREVRMHSVRDVDGRIHSDIKVHVHIGDKRQNLSHEVYSTKYDGRWIIKSVILT", "NO"),
    ("SEDEHQSKLALELLQESSYTGDWKTSQDLMDPHARFVIGDKYVHGMEEVSRMMEEIRIEEIHIRKIHTVGNKIEIKGEIRIRIGDKHTSTEVEWVASKVNGRWLLEELVVH", "NO"),
    ("SEEEHYMLKVAKLAVRNYFTGNEHVLDELFDPHTRQEVNGVENHGRETVRDFLREHLKHMRFHDFKIRDFKWQGDKAHTETETDVEIDGQRIPLRMEIIIIIIDGVPKSISLRLG", "YES"),
    ("DELKSLSRKATEDIVELIITGDEKMLREYMDPNVRVDINGQEIHGREIFFEYIRHLLEHMGVDHLKLDRMEVRDINGQLYIHFRGTTVFNGRTYDEELIWVIVKIDGRWYIEQIEIRFE", "YES"),
    ("DEDKEAKEESWRIYLHSLLTGDEKEIERLVDPNARLDINGQEHHGRHMVLTHVLRLMVRADHLDDIEIHHMEVIDGQLHSDVILKITINGRDVHIREHYLLRKVNGRWYFKSIEVR", "YES"),
]

Value source: the NTF2 design screens of Basanta et al. (2020)
